# assay_target: P2X purinoceptor 7 (Homo sapiens)
# Sequence (Q99572 whole entry): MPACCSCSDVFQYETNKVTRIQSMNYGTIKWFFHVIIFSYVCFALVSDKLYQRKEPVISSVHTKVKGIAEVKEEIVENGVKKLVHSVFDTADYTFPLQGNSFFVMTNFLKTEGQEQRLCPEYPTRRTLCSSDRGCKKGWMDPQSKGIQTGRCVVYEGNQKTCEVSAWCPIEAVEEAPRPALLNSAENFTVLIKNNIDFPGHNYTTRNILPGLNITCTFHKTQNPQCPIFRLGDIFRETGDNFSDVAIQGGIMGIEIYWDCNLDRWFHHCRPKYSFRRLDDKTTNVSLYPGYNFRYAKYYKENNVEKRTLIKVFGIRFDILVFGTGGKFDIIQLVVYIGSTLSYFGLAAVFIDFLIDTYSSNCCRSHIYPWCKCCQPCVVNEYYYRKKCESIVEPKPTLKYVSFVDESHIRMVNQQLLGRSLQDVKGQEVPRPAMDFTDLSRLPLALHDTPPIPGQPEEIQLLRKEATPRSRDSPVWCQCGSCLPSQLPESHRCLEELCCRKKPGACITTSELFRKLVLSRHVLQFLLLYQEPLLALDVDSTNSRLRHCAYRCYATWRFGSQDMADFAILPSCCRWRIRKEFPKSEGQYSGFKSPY
# measurement_protocol: Antagonist activity at human P2X7 receptor assessed as reduction in calcium flux by FLIPR assay
pIC50: −log10 of the molar value.
quantity: pIC50

Past entries and their recorded results:
Nc1ccc2c(C(=O)NCC(c3cnc(C(F)(F)F)nc3)N3CCC(F)(F)CC3)c(Cl)ccc2n1 (centres undefined)
8.05
O=C(NCC(c1cnc(C(F)(F)F)nc1)N1CCC(F)(F)CC1)c1c(Cl)ccc2nc(N3CCOCC3)ccc12 (centres undefined)
7.60
CNc1ccc2c(C(=O)NCC(c3cnc(C(F)(F)F)nc3)N3CCC(F)(F)CC3)c(Cl)ccc2n1 (centres undefined)
7.09
O=C(NCC(c1cnc(C(F)(F)F)nc1)N1CCC(F)(F)CC1)c1c(Cl)ccc2nc(NCCO)ccc12 (centres undefined)
7.11
CN1CCN(c2ccc3c(C(=O)NCC(c4cnc(C(F)(F)F)nc4)N4CCC(F)(F)CC4)c(Cl)ccc3n2)CC1 (centres undefined)
7.07
O=C(NCC(c1cnc(C(F)(F)F)nc1)N1CCC(F)(F)CC1)c1c(Cl)ccc2nc(N3CC[C@H](O)C3)ccc12 (some centres undefined)
6.82

(I) O=C(NCC(c1cnc(C(F)(F)F)nc1)N1CCC(F)(F)CC1)c1c(Cl)ccc2nc(N3CCC(O)CC3)ccc12 (centres undefined)
(II) O=C(NCC(c1cnc(C(F)(F)F)nc1)N1CCC(F)(F)CC1)c1c(Cl)ccc2nc(N3CC[C@@H](O)C3)ccc12 (some centres undefined)
(III) O=C(NCC(c1cnc(C(F)(F)F)nc1)N1CCC(F)(F)CC1)c1c(Cl)ccc2nc(NC3CC3)ccc12 (centres undefined)
Req: # ascending order, key=pIC50 Provide your answer as the labels ordered per the instruction.
Resp: I, III, II

###

# assay_target: P2X purinoceptor 7 (Mus musculus, UniProt Q9Z1M0)
# Sequence (Q9Z1M0 whole entry): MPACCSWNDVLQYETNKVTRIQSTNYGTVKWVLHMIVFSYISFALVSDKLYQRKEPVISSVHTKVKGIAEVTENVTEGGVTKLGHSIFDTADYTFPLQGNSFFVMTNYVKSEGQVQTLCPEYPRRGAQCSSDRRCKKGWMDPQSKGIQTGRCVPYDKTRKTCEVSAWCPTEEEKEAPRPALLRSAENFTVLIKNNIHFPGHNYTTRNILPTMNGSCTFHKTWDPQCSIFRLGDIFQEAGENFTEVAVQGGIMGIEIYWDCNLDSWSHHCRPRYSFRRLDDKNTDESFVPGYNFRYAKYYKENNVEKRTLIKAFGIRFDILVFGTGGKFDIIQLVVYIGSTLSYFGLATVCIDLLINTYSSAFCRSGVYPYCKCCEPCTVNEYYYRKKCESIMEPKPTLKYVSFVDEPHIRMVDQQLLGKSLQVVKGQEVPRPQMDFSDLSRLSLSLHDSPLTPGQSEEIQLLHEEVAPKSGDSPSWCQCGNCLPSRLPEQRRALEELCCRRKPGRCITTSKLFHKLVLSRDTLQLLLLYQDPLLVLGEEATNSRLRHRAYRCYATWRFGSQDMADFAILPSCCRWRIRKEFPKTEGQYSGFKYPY
# measurement_protocol: Antagonist activity at P2X7 receptor in C57/bl6 mouse whole blood assessed as reduction in LPS/BzATP-induced IL-1beta release preincubated with LPS-stimulated cells for 30 mins followed by BzATP addition measured after 1.5 hrs by ELISA
# Type: tissue-based
pIC50: −log10 of the molar value.
quantity: pIC50

O=C(NCC(c1cnc(C(F)(F)F)nc1)N1CCC(F)(F)CC1)c1c(Cl)ccc2nc(NC3CC3)ccc12 (stereo not drawn)
6.20

(I) O=C(NCC(c1cnc(C(F)(F)F)nc1)N1CCC(F)(F)CC1)c1c(Cl)ccc2nc(N3CC[C@@H](O)C3)ccc12 (stereo partly drawn)
(II) O=C(NCC(c1cnc(C(F)(F)F)nc1)N1CCC(F)(F)CC1)c1c(Cl)ccc2nc(N3CCOCC3)ccc12 (stereo not drawn)
Req: Endpoint returns the identifier whose pIC50 is numerically larger, either I or II . // caller expects the label of the chosen entry
Resp: I

Each recorded value in this set is attributed to ChEMBL document CHEMBL3856256.
